Below, each entry is listed with its recorded Kd.
target: T1, SARS-CoV-2 receptor binding domain (RBD), native (SARS-CoV-2, UniProt P0DTC2 330-532); test: BLI, Fab and RBD
T1 construct: range 330-532
Kindly answer with a numeric value in nM, unit omitted.

// query Kd value for entry Fab 269 (Fab, V domains shown, also called 269 Fab; COVOX-269 Fab) VH: QVQLVESGGGLIQPGGSLRLSCAASGLTVNRNYMSWIRQAPGKGLEWVSVIYSGGSTFYADSVKGRFTISRDNSKNTLSLQMNSLRAEDTAIYYCARDFYEGSFDIWGQGTMVTVSS VL: AIQLTQSPSFLSASIGDRVTITCRASQGISSYLAWYQQKPGKAPKLLIYAASTLQSGVPSRFSGSGSGTEFTLTISSLQPEDFASYYCQQLNSYPAPVFGPGTKVDIK
2.2

// query Kd value for entry Fab 165 (Fab, V domains shown) VH: QVQLVQSGPEVKKPGTSVKVSCKASGFTFTSSAVQWVRQARGQRLEWIGWIVVGSGNTNYAQKFQESVTITRDMSTSTAYMELSSLRSEDTAVYYCAAPHCIGGSCHDAFDIWGQGTMVTVSS VL: DIVMTQSPGTLSLSPGERATLSCRASQSVRSSYLAWYQQKPGQAPRLLIYGASRRGTGIPDRFSGSGSGTDFTLTISRLEPEDFAVYYCQQYGSSPWTFGQGTKVEIK
4.8

// query Kd value for entry Fab 278 (Fab, V domains shown) VH: QVQLVQSGAEVKKPGASVKVSCKASGYIFIRYGISWVRQAPGQGLEWMGWISANNGYTNYAQKLQGRVTMTTDTSTSTAYMELRSLRSDDTAVYYCARDGGILTGYLDYFDHWGQGTLVTVSS VL: DIQMTQSPSSLSASVGDRLTITCRASQSIASYLNWYQQKPGKAPKLLIYAASSLQSGVPSRFSGSGSGTDFTLTISSLQPEDFATYHCQQSYSTLGITFGPGTKVDIK
3
